# assay.system: human KEAP1 (N-term, residues 321-609) (Homo sapiens)
# experimental.details: biochemical
Mark 1 only for IC50 values smaller than 6 nM; exact matches and larger values are 0.

Before answering, review these 5 worked examples.
- smiles.entry: "Cn1nnc(COc2cccc3c2[C@@H](CN2CCCC2=O)N(C(=O)[C@@H]2CCCC[C@]2(C)C(=O)O)CC3)c1C(F)(F)F"
  group.label: 1
- smiles.entry: "CC(C)n1ccnc1COc1ccc(Br)c2c1[C@@H](CN1Cc3ccccc3C1=O)N(C(=O)[C@@H]1CCCC[C@@H]1C(=O)O)CC2"
  group.label: 0
- smiles.entry: "Cn1cc(COc2ccc(Br)c3c2[C@@H](CN2Cc4ccccc4C2=O)N(C(=O)[C@@H]2CCCC[C@@H]2C(=O)O)CC3)nn1"
  group.label: 1
- smiles.entry: "Cn1nnc(COc2ccc(Cl)c3c2[C@@H](CN2CCCC2=O)N(C(=O)[C@@H]2CCCC[C@]2(C)C(=O)O)CC3)c1C1CC1"
  group.label: 1
- smiles.entry: "Cc1cc(COc2ccc(Br)c3c2[C@@H](CN2Cc4ccccc4C2=O)N(C(=O)[C@@H]2CCCC[C@@H]2C(=O)O)CC3)no1"
  group.label: 0

Next compound, please.
Problem: For this compound, is IC50 lower than 6 nM? "Cc1c(COc2ccc(Cl)c3c2[C@@H](CN2CC4(CC4)CC2=O)N(C(=O)[C@@H]2CCCC[C@]2(C)C(=O)O)CC3)nnn1C"
Solution: 1

----------
Examples of compounds with documented pIC50 follow.
# assay.system: human KEAP1 (N-term, residues 321-609) (Homo sapiens, UniProt Q14145)
# Sequence (Q14145 321-609): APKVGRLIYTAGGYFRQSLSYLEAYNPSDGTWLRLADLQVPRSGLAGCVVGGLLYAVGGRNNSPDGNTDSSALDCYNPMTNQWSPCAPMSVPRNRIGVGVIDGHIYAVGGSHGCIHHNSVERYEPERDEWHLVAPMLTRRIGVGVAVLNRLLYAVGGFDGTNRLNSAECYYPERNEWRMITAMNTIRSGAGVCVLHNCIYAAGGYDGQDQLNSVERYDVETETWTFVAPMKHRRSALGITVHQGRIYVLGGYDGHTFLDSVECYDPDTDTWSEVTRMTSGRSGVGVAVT
# experimental.details: biochemical
By convention, pIC50 is the negative base-10 log of a molar concentration.

Illustrative cases are given below, each with its answer.
- compound: "Cn1nnc(COc2ccc(Cl)c3c2[C@@H](CN2CC(C(F)(F)F)CC2=O)N(C(=O)[C@@H]2CCCC[C@]2(C)C(=O)O)CC3)c1C(F)F (single isomer, unassigned) [Example 212]"
  quantitative.result: 8.24
- compound: "Cn1cnc2cc(COc3cccc4c3[C@@H](CN3C(=O)c5ccccc5C3=O)N(C(=O)[C@@H]3CCCC[C@@H]3C(=O)O)CC4)ccc21"
  quantitative.result: 7.82
- compound: "Cn1nnc(COc2ccc(Br)c3c2[C@@H](CN2CCCC2=O)N(C(=O)[C@@H]2CCCC[C@]2(C)C(=O)O)CC3)c1C(F)(F)F"
  quantitative.result: 8.28
- compound: "Cn1c(COc2ccc(Cl)c3c2[C@@H](CN2CC4(CC4)CC2=O)N(C(=O)[C@@H]2CCCC[C@]2(C)C(=O)O)CC3)nnc1C1CC1"
  quantitative.result: 8.54

Problem: Name the recorded pIC50 for "Cn1cc(COc2cccc3c2[C@@H](CN2C(=O)c4ccccc4C2=O)N(C(=O)[C@@H]2CCCC[C@@H]2C(=O)O)CC3)nn1" .
Solution: 8.11

Problem: Same lookup for "CCn1ccc(COc2ccc(Cl)c3c2[C@@H](CN2Cc4ccccc4C2=O)N(C(=O)[C@@H]2CCCC[C@@H]2C(=O)O)CC3)n1" , please.
Solution: 8.25

----------
Examples of molecules with documented IC50 follow.
# assay.system: human KEAP1 (N-term, residues 321-609) (Homo sapiens)
# experimental.details: biochemical
Just the number please, in nM, no unit attached.

- smiles.entry: "Cn1nnc(COc2ccc(Cl)c3c2[C@@H](CN2CC4(CC4)CC2=O)N(C(=O)[C@@H]2CCC[C@]2(C)C(=O)O)CC3)c1C(F)(F)F"
  property.label: "IC50"
  quantitative.result: 9
- smiles.entry: "Cc1cc(COc2ccc(Cl)c3c2[C@@H](CN2CCCC2=O)N(C(=O)[C@@H]2CCCC[C@]2(C)C(=O)O)CC3)no1"
  property.label: "IC50"
  quantitative.result: 7.5
- smiles.entry: "CC(=O)N1CC[C@H](Oc2c(Cl)cc(Cl)c3c2[C@@H](CN2C(=O)c4ccccc4C2=O)N(C(=O)[C@@H]2CCCC[C@@H]2C(=O)O)CC3)C1"
  property.label: "IC50"
  quantitative.result: 8.5
- smiles.entry: "Cc1ccc(OCc2cn(C(C)C)nn2)c2c1CCN(C(=O)[C@@H]1CCCC[C@@H]1C(=O)O)[C@@H]2CN1Cc2ccccc2C1=O"
  property.label: "IC50"
  quantitative.result: 11
- smiles.entry: "Cn1nnc(COc2ccc(Cl)c3c2[C@@H](CN2CC4(CC4)CC2=O)N(C(=O)[C@@H]2CC=CC[C@]2(C)C(=O)O)CC3)c1C(F)F"
  property.label: "IC50"
  quantitative.result: 3.3

// moving on: another record for IC50
Problem: Name the recorded IC50 for "Cn1nnc2cc(COc3ccc(Br)c4c3[C@@H](CN3Cc5ccccc5C3=O)N(C(=O)[C@@H]3CCCC[C@@H]3C(=O)O)CC4)ccc21" .
Solution: 9.3

----------
# assay.system: human KEAP1 (N-term, residues 321-609) (Homo sapiens, UniProt Q14145)
# experimental.details: biochemical
property.label: pIC50
By convention, pIC50 is the negative base-10 log of a molar concentration.

Illustrative cases are given below, each with its answer.
- compound: "CCn1nnc(COc2ccc(Cl)c3c2[C@@H](CN2CCCC2=O)N(C(=O)[C@@H]2CCCC[C@]2(C)C(=O)O)CC3)c1C(F)F [Example 120]"
  quantitative.result: 8.21
- compound: "C[C@]1(C(=O)O)CCCC[C@H]1C(=O)N1CCc2c(Cl)ccc(O[C@H]3CCN(S(C)(=O)=O)C3)c2[C@H]1CN1CC2(CC2)CC1=O [Example 187]"
  quantitative.result: 8.22
- compound: "O=C(O)[C@H]1CCCC[C@H]1C(=O)N1CCc2c(Br)ccc(OCc3nnc4ccccn34)c2[C@H]1CN1Cc2ccccc2C1=O [Example 16]"
  quantitative.result: 8.09
- compound: "Cc1onc(COc2ccc(Cl)c3c2[C@@H](CN2CC4(CC4)CC2=O)N(C(=O)[C@@H]2CCCC[C@]2(C)C(=O)O)CC3)c1C(F)(F)F [Example 154]"
  quantitative.result: 8.03
- compound: "Cn1nnc(COc2ccc(Cl)c3c2[C@@H](CN2CC4(CC4)CC2=O)N(C(=O)[C@@H]2CCC[C@]2(C)C(=O)O)CC3)c1C(F)F [Example 110]"
  quantitative.result: 8.20

Problem: Missing value: pIC50, human KEAP1 (N-term, residues 321-609) (Homo sapiens, UniProt Q14145), entry CCn1cnnc1COc1ccc(Br)c2c1[C@@H](CN1Cc3ccccc3C1=O)N(C(=O)[C@@H]1CCCC[C@@H]1C(=O)O)CC2 [Example 42] . Fill in?
Solution: 8.10

Problem: Same lookup for Cn1nnc(COc2ccc(Cl)c3c2[C@@H](CN2Cc4ccccc4C2=O)N(C(=O)[C@@H]2CCCC[C@@H]2C(=O)O)CC3)c1C(F)F [Example 53] , please.
Solution: 8.21

Problem: Same lookup for Cn1nnc(COc2ccc(F)c3c2[C@@H](CN2CCCC2=O)N(C(=O)[C@@H]2CCCC[C@]2(C)C(=O)O)CC3)c1C(F)(F)F [Example 178] , please.
Solution: 8.19

----------
Examples of compounds with documented pIC50 follow.
# assay.system: human KEAP1 (N-term, residues 321-609) (Homo sapiens, UniProt Q14145)
# experimental.details: biochemical
By convention, pIC50 is the negative base-10 log of a molar concentration.

Problem: Name the recorded pIC50 for C[C@]1(C(=O)O)CCCC[C@H]1C(=O)N1CCc2c(Cl)ccc(OCc3noc4c(F)cccc34)c2[C@H]1CN1CCCC1=O [Example 164] .
Solution: 8.22

Problem: Same lookup for C[C@]1(C(=O)O)CCCC[C@H]1C(=O)N1CCc2c(Cl)ccc(OCc3noc4c3CCCC4)c2[C@H]1CN1CCCC1=O [Example 138] , please.
Solution: 8.10

Problem: Same lookup for Cn1nnc(COc2ccc(Cl)c3c2[C@@H](CN2CCCC2=O)N(C(=O)[C@@H]2CCCC[C@]2(C)C(=O)O)CC3)c1C(F)F [Example 91] , please.
Solution: 8.21

Problem: Same lookup for Cn1cnc2cc(COc3ccc(Cl)c4c3[C@@H](CN3CCCC3=O)N(C(=O)[C@@H]3CCCC[C@@H]3C(=O)O)CC4)cnc21 [Example 89] , please.
Solution: 8.09

----------
# assay.system: human KEAP1 (N-term, residues 321-609) (Homo sapiens, UniProt Q14145);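 also: fluorescence polarization competition assay of Kelch domain binding to NRF2, 12-point 1:3 dilution series from 10 µM, read after 1 h at room temperature, floor 10 nM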
# experimental.details: biochemical
pIC50: −log10 of the molar value.
Classification field: satisfied = pIC50 at or over 8; not satisfied = pIC50 under 8.

- smiles.entry: "CC(C)n1cc(COc2ccc(C#N)c3c2[C@@H](CN2Cc4ccccc4C2=O)N(C(=O)[C@@H]2CCCC[C@@H]2C(=O)O)CC3)nn1"
  assay.system: "human KEAP1 (N-term, residues 321-609) (Homo sapiens, UniProt Q14145)"
  group.label: "not satisfied"
- smiles.entry: "C[C@]1(C(=O)O)CCCC[C@H]1C(=O)N1CCc2c(Cl)ccc(OCc3nnn4c3CCCC4)c2[C@H]1CN1CCOCC1=O"
  assay.system: "human KEAP1 (N-term, residues 321-609) (Homo sapiens, UniProt Q14145)"
  group.label: "satisfied"
- smiles.entry: "Cn1nnc(COc2ccc(Cl)c3c2[C@@H](CN2CC4(CC4)CC2=O)N(C(=O)[C@@H]2CC[C@H](O)C[C@]2(C)C(=O)O)CC3)c1C(F)F"
  assay.system: "human KEAP1 (N-term, residues 321-609) (Homo sapiens, UniProt Q14145)"
  group.label: "satisfied"
- smiles.entry: "Cn1nnc(COc2c(F)cc(Cl)c3c2[C@@H](CN2CCCC2=O)N(C(=O)[C@@H]2CCCC[C@]2(C)C(=O)O)CC3)c1C(F)F"
  assay.system: "human KEAP1 (N-term, residues 321-609) (Homo sapiens, UniProt Q14145)"
  group.label: "satisfied"
- smiles.entry: "C[C@]1(C(=O)O)CCCC[C@H]1C(=O)N1CCc2c(F)ccc(OCc3nnn4c3CCCC4)c2[C@H]1CN1CC2(CC2)CC1=O"
  assay.system: "human KEAP1 (N-term, residues 321-609) (Homo sapiens, UniProt Q14145)"
  group.label: "satisfied"

Next molecule, please.
Problem: Can "[2H]C1([2H])CC[C@](C)(C(=O)O)[C@H](C(=O)N2CCc3c(Cl)ccc(OCc4nnn(C)c4C(F)F)c3[C@H]2CN2CC3(CC3)CC2=O)C1" be said to have pIC50 at or above 8?
Solution: satisfied
